test: physchem; type: physicochemical; conditions: I = 0.15 M, 25 °C; standard deviation in parenthesis
readout.name: logP
Answers are plain numbers.

So what does the record say about logP for CN1C(C(=O)Nc2ccccn2)=C(O)c2ccccc2S1(=O)=O ?
1.71

====

Give measured solubility for each item. Keep answers brief.
assay: CheqSol potentiometric intrinsic solubility and supersaturation; format: physicochemical; conditions: aqueous titration solution, thermodynamic from solid; CheqSol, without excipient; 0.17 M KCl, 25 °C; standard deviation in parenthesis; read-out: log S0 (intrinsic solubility) (converted)
Write the quantity with the unit trailing the number.

The examples below pair each entry with its known result.
[[record]]
compound = "CN1C(C(=O)Nc2ccccn2)=C(O)c2ccccc2S1(=O)=O"
result = "21.4 µM"

[[record]]
compound = "NS(=O)(=O)c1cc2c(cc1Cl)N=C(CSCc1ccccc1)NS2(=O)=O [Benzthiazide]"
result = "11.2 µM"


For the next question, use this compound.
So what does the record say about solubility for Cc1cc(NC(=O)C2=C(O)c3ccccc3S(=O)(=O)N2C)no1 ?
1.91 µM

====

assay: CheqSol potentiometric intrinsic solubility and supersaturation; assay type: physicochemical; conditions: aqueous titration solution, 0.17 M KCl; CheqSol, Figure 2A, without excipient; read-out: Intrinsic solubility
readout.name: solubility (µM)
Answers are plain numbers, in µM.

What does the data say about its solubility? Entry: Cc1cc(NC(=O)C2=C(O)c3ccccc3S(=O)(=O)N2C)no1
1.88

====

assay: pKa determination, spectrometric UV-metric titration (SiriusT3); format: physicochemical; conditions: aqueous 0.15 M KCl solution; I = 0.15 M, 25 °C; standard deviation in parenthesis; read-out: pKa (second value)
readout.name: pKa

I am curious: what pKa value has been reported for CN1C(C(=O)Nc2ccccn2)=C(O)c2ccccc2S1(=O)=O [Piroxicam] ?
5.34
